We begin with a simple list: items and their reported Discrimination ratio against IRES RNA.
- Tested on: hairpin from IRES domain IV of HCV (IRES)
- Format: binding
- experimental.conditions: average Kd against other hairpins (RRE, TAR, 16S A-site)/Kd against IRES
Square brackets hold non-standard residues; d marks the D form. Ends that are not written are not given here. Orn = NCCC[C@H](N)C(=O)O; Dab = NCC[C@H](N)C(=O)O; Dap = NC[C@H](N)C(=O)O

substance	Discrimination ratio against IRES RNA
LKKLL[Dab]LL[Orn]KLLKLAG [2j]	6.3
LKKLLKWL[Orn]KLL[Dap]LAG [3d]	45
LKKLLKWL[Orn]KLLKLAG [3b]	4.2
LKKLLKLLKKLL[Dap]LAG [2i]	12
Ac-LKKWLKLLKKLLKLAG-NH2 [2o]	5.5
LKKLL[Orn]LLKKLLKLAG [2a]	2.5
Ac-LKKLLKLLKKWLKLAG-NH2 [2s]	5.8

----------
# Discrimination ratio against IRES RNA per entry
- Test system: hairpin from IRES domain IV of HCV (IRES)
- Assay type: binding
- experimental.conditions: average Kd against other hairpins (RRE, TAR, 16S A-site)/Kd against IRES
Square brackets hold non-standard residues; d marks the D form. Ends that are not written are not given here. Orn = NCCC[C@H](N)C(=O)O; Dab = NCC[C@H](N)C(=O)O; Dap = NC[C@H](N)C(=O)O

substance	Discrimination ratio against IRES RNA
LKKLLKLL[Dap]KLLKLAG [2f]	0.6
LKKLLKLLKKLL[Orn]LAG [2g]	3.3
LKKLL[Dab]WLKKLLKLAG [3a]	10
LKKLL[Dap]LLKKLLKLAG [2c]	2.4
Ac-LKKLWKLLKKLLKLAG-NH2 [2p]	3.3
Ac-LKKLLKLLKKLLKWAG-NH2 [2u]	14
LKKLLKLL[Orn]KLL[Dap]LAG [2k]	25

----------
- assay.procedure: Circular dichroism, α-helical content of peptide alone
- Format: physicochemical
- experimental.conditions: CD, 10 mM H3PO4, 20 °C
Square brackets hold non-standard residues; d marks the D form. Ends that are not written are not given here. Orn = NCCC[C@H](N)C(=O)O; Dab = NCC[C@H](N)C(=O)O; Dap = NC[C@H](N)C(=O)O
Bucketed by reported helicity (first value), buckets being low interval (below 30%), middle interval (30% to below 40%), high interval (40% or more)

substance	category
LKKLLKWLKKLL[Dap]LAG [3c]	low interval
LKKLLKLLKKLL[Dab]LAG [2h]	low interval
LKKLLKWL[Orn]KLLKLAG [3b]	middle interval
Ac-LKKLLKLLKKWLKLAG-NH2 [2s]	low interval
LKKLLKLL[Orn]KLL[Dap]WAG [3h]	low interval
Ac-LKKLLKLLKKLWKLAG-NH2 [2t]	low interval
LKKLLKLL[Dab]KLLKLAG [2e]	high interval
LKKLLKLL[Orn]KLLKWAG [3f]	middle interval
Ac-LKKWLKLLKKLLKLAG-NH2 [2o]	low interval
Ac-WKKLLKLLKKLLKLAG-NH2 [2n]	high interval
LKKLL[Dab]LL[Orn]KLLKLAG [2j]	high interval

----------
- Test system: hairpin from IRES domain IV of HCV (IRES)
- Format: binding
- experimental.conditions: average Kd against other hairpins (RRE, TAR, 16S A-site)/Kd against IRES
Square brackets hold non-standard residues; d marks the D form. Ends that are not written are not given here. Orn = NCCC[C@H](N)C(=O)O; Dab = NCC[C@H](N)C(=O)O; Dap = NC[C@H](N)C(=O)O
Discrimination ratio against IRES RNA values by entry
parameter: Discrimination ratio against IRES RNA

substance	parameter	value.reported
LKKLLKWLKKLL[Dap]LAG [3c]	Discrimination ratio against IRES RNA	17
LKKLLKLLKKLL[Dab]LAG [2h]	Discrimination ratio against IRES RNA	2.0
LKKLLKLL[Orn]KLLKLAG [2d]	Discrimination ratio against IRES RNA	9.1
LKKLLKLLKKLL[Dap]WAG [3g]	Discrimination ratio against IRES RNA	9.4
Ac-WKKLLKLLKKLLKLAG-NH2 [2n]	Discrimination ratio against IRES RNA	2.4
Ac-LKKLLKLWKKLLKLAG-NH2 [2r]	Discrimination ratio against IRES RNA	0.67
LKKLL[Dab]LLKKLL[Dap]LAG [2l]	Discrimination ratio against IRES RNA	13
LKKLL[Dab]LLKKLLKWAG [3e]	Discrimination ratio against IRES RNA	28
LKKLLKLL[Orn]KLLKWAG [3f]	Discrimination ratio against IRES RNA	1.0
Ac-LKKLLKWLKKLLKLAG-NH2 [2q]	Discrimination ratio against IRES RNA	15
LKKLLKLL[Dab]KLLKLAG [2e]	Discrimination ratio against IRES RNA	6.5
LKKLL[Dab]LLKKLLKLAG [2b]	Discrimination ratio against IRES RNA	6.3
LKKLLKLL[Orn]KLL[Dap]WAG [3h]	Discrimination ratio against IRES RNA	1.6
Ac-LKKLLKLLKKLWKLAG-NH2 [2t]	Discrimination ratio against IRES RNA	5.8
